Here, each record is paired with measured Percent Control data.
# System: PKNB(M.tuberculosis)
# EXPERIMENTAL PARAMETERS: 1 µM;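 further: KINOMEscan scanMAX binding as percent activity remaining versus control; lower means stronger binding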
Give just the numeric value; % need not be written.

Guide cases for Percent Control, answers given:
Cl.O=C(Nc1ccc(Oc2ccc3[nH]c(NC(=O)c4ccco4)nc3c2)cc1)Nc1cc(C(F)(F)F)ccc1F [GW683134A]	99
CC1=C(C(=O)Nc2ccc3[nH]ncc3c2)C(c2ccc3ccccc3c2)CC(=O)N1 (stereo not drawn) [GSK270822A]	87
CCS(=O)(=O)c1ccc(OC)c(Nc2ncc(-c3cccc(F)c3)o2)c1 [GW621970X]	100

Continue with the next compound.
Query: State its Percent Control for this compound: COc1cc2ncnc(Nc3ccc4c(cnn4Cc4ccccc4)c3)c2cc1OC.Cl [GW282449A]
Reply: 100

====

# System: AAK1
# EXPERIMENTAL PARAMETERS: Compound Concentration (nM):1000
One threshold, 70%, splits the recorded Percent Control values: lower ones are true, equal or higher ones are false.

Consider the worked cases shown below.
CN(C)CCNC(=O)Nc1ccc(N(C)c2ccnc(Nc3ccc(CS(C)(=O)=O)cc3)n2)cc1.Cl [GW830900A]	true
NS(=O)(=O)c1ccc(N/N=C2\C(=O)Nc3ccc(C(=O)NCc4ccncc4)cc32)cc1 [GW300657X]	true
CN1CCN(C(=O)c2ccc(NC(=O)Nc3ccc(N(C)c4ccnc(Nc5ccc(CS(C)(=O)=O)cc5)n4)cc3)cc2)CC1.Cl [GW830263A]	true
O=C1Nc2ccc(C(=O)c3ccco3)cc2C1=Cc1cc(Cl)c(O)c(Cl)c1 [GW406108X]	true

Query: I'd appreciate it if you could check whether `COc1cc(C)c(N(C)C(=O)CN(C)C)cc1Nc1nc(Nc2cccc(F)c2C(N)=O)c2cc[nH]c2n1` has Percent Control smaller than 70%.
Reply: false

Query: Lab note: confirm whether the reported Percent Control for this compound is below 70%, equality not counting. compound: Cl.O=C(Nc1ccc(Oc2ccc3[nH]c(NC(=O)c4ccccc4)nc3c2)cc1)Nc1cc(C(F)(F)F)ccc1F [GW709042A]
Reply: false

====

Measured Percent Control, listed per entry.
# Test system: FGR
# EXPERIMENTAL PARAMETERS: Compound Concentration (nM):1000
Use % as the unit, but write only the number.

Example entries and their recorded answers appear below.
Cl.O=S1CCN(Cc2ccc(-c3ccc4ncnc(Nc5ccc(OCc6ccccc6)c(F)c5)c4c3)o2)CC1 [GW576924A]	100
O=C1Nc2ccc(C(=O)c3ccco3)cc2C1=Cc1cc(Cl)c(O)c(Cl)c1 [GW406108X]	81
COc1cc(C=NNc2ncnc3c2cnn3-c2ccccc2)ccc1O [GW513184X]	80

# context switch: different molecule, same Percent Control
Query: GET Percent Control | system: FGR | item: CC1=C(C(=O)Nc2ccc3[nH]ncc3c2)C(c2ccc3ccccc3c2)CC(=O)N1 (stereo not shown) [GSK270822A]
Reply: 76

====

# System: AURKC
# EXPERIMENTAL PARAMETERS: Compound Concentration (nM):1000
// reported Percent Control per item

CC(C)COC(=O)c1ccc2c(c1)/C(=C/Nc1ccc(S(N)(=O)=O)cc1)C(=O)N2 [GW416981X]	35%
CCS(=O)(=O)c1ccc(OC)c(Nc2ncc(-c3cccc(OC)c3)o2)c1 [GW580509X]	100%
COc1cccc(-n2ncc3c(N/N=C/c4ccncc4)ncnc32)c1 [GW784752X]	94%

Okay, now this compound:
Query: Identify measured Percent Control corresponding to COc1cc(C)c(N(C)C(=O)CN(C)C)cc1Nc1nc(Nc2cccc(F)c2C(N)=O)c2cc[nH]c2n1 [GSK2219385]
Reply: 90%

These measurements were taken from paper PMC7826789.
